Measured values drawn from patent US20260062443A1 for this set.

Let's look at some compounds and their measured IC50.
target: Human complement C1s enzyme (Homo sapiens); assay: Human C1s enzyme assay; type: biochemical; settings: human complement C1s enzyme 1.16 nM, substrate Z-L-Lys-SBzl 100 μM, 5 min preincubation; read-out: IC50 (Stars), C1s Inhibiting Activity
Sequence (P09871 438-688 limits assumed): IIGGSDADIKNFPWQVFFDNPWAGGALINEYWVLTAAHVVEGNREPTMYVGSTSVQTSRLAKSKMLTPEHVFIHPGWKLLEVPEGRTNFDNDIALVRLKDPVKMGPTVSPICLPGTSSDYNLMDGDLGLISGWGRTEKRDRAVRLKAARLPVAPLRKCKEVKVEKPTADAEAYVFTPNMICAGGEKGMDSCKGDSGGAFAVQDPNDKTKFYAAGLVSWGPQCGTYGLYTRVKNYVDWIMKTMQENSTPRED
Sequence (P09871 16-437 partner limits assumed): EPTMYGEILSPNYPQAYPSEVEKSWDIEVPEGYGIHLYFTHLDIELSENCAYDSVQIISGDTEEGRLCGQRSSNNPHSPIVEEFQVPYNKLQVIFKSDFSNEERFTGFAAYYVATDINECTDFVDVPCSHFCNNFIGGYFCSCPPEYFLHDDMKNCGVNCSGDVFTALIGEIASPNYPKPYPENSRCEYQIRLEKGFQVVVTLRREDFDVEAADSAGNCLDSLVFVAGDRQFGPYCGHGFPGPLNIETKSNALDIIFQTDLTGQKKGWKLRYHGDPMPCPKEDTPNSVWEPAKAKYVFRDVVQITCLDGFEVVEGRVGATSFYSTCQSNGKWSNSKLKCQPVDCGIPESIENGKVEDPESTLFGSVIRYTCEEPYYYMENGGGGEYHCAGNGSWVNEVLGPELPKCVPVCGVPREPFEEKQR
Result Type: IC50

| Compound | Result Type | Observed |
| --- | --- | --- |
| C[C@@H](NC(=O)[C@@H]1C[C@]2(C)C[C@@H]2N1C(=O)CNC(=O)c1cccc(Oc2ccccc2)c1)c1cc2cnccc2[nH]1 [Compound 171] | IC50 | < 0.1 µM |
| C[C@@H](NC(=O)[C@@H]1C[C@]2(CO)C[C@@H]2N1C(=O)CNC(=O)c1ccc2c(c1)Oc1ccccc1S2)c1cc2cnccc2[nH]1 [Compound 161] | IC50 | < 0.1 µM |
| O=C(NCC(=O)N1CC2(C[C@H]1C(=O)NCc1cc3cnccc3[nH]1)OCCO2)c1ccc(Oc2ccccc2)cc1 [Compound 32] | IC50 | < 0.1 µM |
| CS(=O)(=O)[C@@H]1C[C@@H](C(=O)N[C@H](CO)c2cc3cnccc3[nH]2)N(C(=O)CNC(=O)c2ccc3c(c2)-c2ccccc2C3(F)F)C1 [Compound 104] | IC50 | 0.1 to 1 µM |
| C[C@H]1C[C@@H](C(=O)N[C@H](C)c2cc3cnccc3[nH]2)N(C(=O)CNC(=O)c2ccc3c(c2)-c2ccccc2C3(F)F)C1 [Compound 166] | IC50 | < 0.1 µM |
| Cc1ccc(Oc2cccc(C(=O)NCC(=O)N3C[C@H](OC(F)F)C[C@H]3C(=O)NCc3cc4cnccc4[nH]3)c2)s1 [Compound 366] | IC50 | < 0.1 µM |
| O=C(Cc1ccc(Cl)c(Cl)c1)NCC(=O)N1CC2(C[C@H]1C(=O)NCc1cc3cnccc3[nH]1)OCCO2 [Compound 280] | IC50 | 0.1 to 1 µM |
| C[C@@H](NC(=O)[C@@H]1C[C@@H](OC(F)F)CN1C(=O)CNC(=O)c1ccc(Oc2ccc(F)cc2)cc1)c1cc2cnccc2s1 [Compound 205] | IC50 | 0.1 to 1 µM |
| O=C(NCC(=O)N1C[C@H](OC(F)F)C[C@H]1C(=O)NCc1ccc2scnc2c1)c1ccc2c(c1)Oc1ccccc1S2 [Compound 222] | IC50 | > 1 µM |
| C[C@@H](NC(=O)[C@@H]1CC2(CN1C(=O)CNC(=O)c1ccc3c(c1)Oc1ccccc1S3)OCCO2)c1cc2cnccc2[nH]1 [Compound 47] | IC50 | < 0.1 µM |
| O=C(NCC(=O)N1CC2(C[C@H]1C(=O)NCc1cc3cnccc3[nH]1)OCCO2)c1ccc2c(c1)oc1ccccc12 [Compound 213] | IC50 | < 0.1 µM |
| Cc1ccc(Oc2cccc(C(=O)NCC(=O)N3[C@H]4C[C@@]4(C)C[C@H]3C(=O)NCc3cc4cnccc4[nH]3)c2)c(F)c1 [Compound 315] | IC50 | < 0.1 µM |
| COC[C@@H]1C[C@@H](C(=O)NCc2cc3cnccc3[nH]2)N(C(=O)CNC(=O)c2cccc(Oc3ccc(C)cc3F)c2)C1 (relative stereo) [Compound 318] | IC50 | < 0.1 µM |
